test: Optical properties of the dyes (absorbance, emission, extinction coefficient, quantum efficiency); format: physicochemical
metric_name: ε

Completed entries (count: 3):
COc1cc(C(C)O)c([N+](=O)[O-])cc1OCCN(C)CCNC(=O)C(CS(=O)(=O)[O-])NC1=C(/C=C2/N(C)c3ccccc3C2(C)C)C(=O)/C1=C\C1=[N+](C)c2ccccc2C1(C)C (stereo not shown)
101400 1·cm^−1·mol^−1
CN1/C(=C/C2=C([O-])C(=C/C3=[N+](C)c4ccccc4C3(C)C)/C2=O)C(C)(C)c2ccccc21
280000 1·cm^−1·mol^−1
CN(CCCCCC(=O)O)CCNC(=O)C(CS(=O)(=O)[O-])NC1=C(/C=C2/N(C)c3ccccc3C2(C)C)C(=O)/C1=C\C1=[N+](C)c2ccccc2C1(C)C (stereo not shown)
127300 1·cm^−1·mol^−1

Shifting focus to the compound that follows.
Memo: COc1cc(C(C)OC(=O)Oc2ccc([N+](=O)[O-])cc2)c([N+](=O)[O-])cc1OCCNC(=O)C(CS(=O)(=O)[O-])NC1=C(/C=C2/N(C)c3ccccc3C2(C)C)C(=O)/C1=C\C1=[N+](C)c2ccccc2C1(C)C (stereo not shown) , reported ε: 79400 1·cm^−1·mol^−1
